system: rodent lifetime carcinogenesis bioassay, tumor incidence TD50; assay: carcinogenic potency in animals, long-term in vivo studies, CPDB compilation (AID 1745844); settings: mouse; strain B6C3F1; females; inhaled; site: pituitary gland; lesion: pars distalis adenoma; dosed 95 weeks; study length 95 weeks
Assay Endpoint: TD50 (mg/kg/day)

{"Smiles Str": "FC(F)=C(F)F", "Tgt": "rodent lifetime carcinogenesis bioassay, tumor incidence TD50", "Test Result": 1450}

---

TD50 values for the compounds below.
tested on: rodent lifetime carcinogenesis bioassay, tumor incidence TD50; assay: carcinogenic potency in animals, long-term in vivo studies, CPDB compilation (AID 1745844); conditions: rat; strain Fischer 344; females; inhaled; site: any site (literature study); lesion: several types; types named in the paper; dosed 105 weeks; study length 105 weeks
Assay Endpoint: TD50

{"Smiles Str": "OCc1ccco1", "Test Result": "7.57 mg/kg/day"}
{"Smiles Str": "[O]=[Mo](=[O])=[O]", "Test Result": "14 mg/kg/day"}
{"Smiles Str": "C=CC(=C)C", "Test Result": "6940 mg/kg/day"}

Source of measurements: PubChem BioAssay AID1745844
